Target Under Test: HDAC-1 (Homo sapiens)
Sequence (Q13547 whole entry, species assumed): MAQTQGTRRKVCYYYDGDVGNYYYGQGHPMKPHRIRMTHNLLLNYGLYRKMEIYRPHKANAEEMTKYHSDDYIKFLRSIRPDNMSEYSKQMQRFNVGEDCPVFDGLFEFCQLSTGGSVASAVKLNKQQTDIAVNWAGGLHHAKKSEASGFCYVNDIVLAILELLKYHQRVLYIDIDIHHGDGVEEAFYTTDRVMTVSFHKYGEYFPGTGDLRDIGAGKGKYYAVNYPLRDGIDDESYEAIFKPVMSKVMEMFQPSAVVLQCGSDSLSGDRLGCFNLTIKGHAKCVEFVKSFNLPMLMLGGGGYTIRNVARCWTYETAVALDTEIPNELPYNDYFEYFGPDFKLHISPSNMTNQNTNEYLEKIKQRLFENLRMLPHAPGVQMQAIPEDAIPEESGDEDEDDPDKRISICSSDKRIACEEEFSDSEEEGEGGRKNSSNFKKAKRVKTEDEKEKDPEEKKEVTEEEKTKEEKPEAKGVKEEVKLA
Assay Details: HDAC-1 inhibitory activity assay (fluorophore/quencher peptide substrate)
Type: biochemical
Experimental Conditions: enzyme/compound pre-incubated 2 hours at room temperature; reaction about 45 minutes
Measure Name: log10 of IC50 (log10 of the value in µM)

[[record]]
structure_string = "Nc1ccc(-c2cccs2)cc1NC(=O)c1ccc(NC(=O)C2(NC(=O)OCc3ccccc3)CC2)c(F)c1"
result_number = -2.25

[[record]]
structure_string = "CC(C)(C)OC(=O)NC1(C(=O)Nc2ccc(C(=O)Nc3ccccc3N)cc2)CCCC1"
result_number = -1.22

[[record]]
structure_string = "Nc1ccc(-c2ccc(Cl)s2)cc1NC(=O)c1ccc(NC(=O)C2(NC(=O)OCc3ccccc3)CC2)cc1"
result_number = -1.57

[[record]]
structure_string = "CC(C)(C)OC(=O)NC1(C(=O)Nc2ccc(C(=O)Nc3ccccc3N)cc2)CC1"
result_number = -1.20

[[record]]
structure_string = "CC(C)(C)NC(=O)NC1(C(=O)Nc2ccc(C(=O)Nc3cc(-c4ccc(F)cc4)ccc3N)cc2)CC1"
result_number = -2.05

[[record]]
structure_string = "CN(C(=O)C1(NC(=O)OCc2ccccc2)CC1)c1ccc(C(=O)Nc2cc(-c3ccc(F)cc3)ccc2N)cc1"
result_number = -2.09

[[record]]
structure_string = "Nc1ccccc1NC(=O)c1ccc(NC(=O)C2(NC(=O)OCc3ccccc3)CC2)cc1"
result_number = -1.60

[[record]]
structure_string = "Nc1ccc(-c2ccc(F)cc2)cc1NC(=O)c1ccc(NC(=O)C2(N)CC2)cc1"
result_number = -2.28

[[record]]
structure_string = "CC(C)(C)OC(=O)NC1(C(=O)Nc2ccc(C(=O)Nc3ccccc3N)cc2)CCCCC1"
result_number = -1.35

[[record]]
structure_string = "Nc1ccc(-c2ccc(F)cc2)cc1NC(=O)c1ccc(NC(=O)C2(NC(=O)OCc3ccccc3)CC2)cc1"
result_number = -2.13

[[record]]
structure_string = "Nc1ccc(-c2cccs2)cc1NC(=O)c1ccc(NC(=O)C2(NC(=O)OCc3ccccc3)CC2)cc1"
result_number = -2.47


###

Quick list: IC50 per entry.
Target Under Test: HDAC-3 (Homo sapiens)
Sequence (O15379 whole entry, species assumed): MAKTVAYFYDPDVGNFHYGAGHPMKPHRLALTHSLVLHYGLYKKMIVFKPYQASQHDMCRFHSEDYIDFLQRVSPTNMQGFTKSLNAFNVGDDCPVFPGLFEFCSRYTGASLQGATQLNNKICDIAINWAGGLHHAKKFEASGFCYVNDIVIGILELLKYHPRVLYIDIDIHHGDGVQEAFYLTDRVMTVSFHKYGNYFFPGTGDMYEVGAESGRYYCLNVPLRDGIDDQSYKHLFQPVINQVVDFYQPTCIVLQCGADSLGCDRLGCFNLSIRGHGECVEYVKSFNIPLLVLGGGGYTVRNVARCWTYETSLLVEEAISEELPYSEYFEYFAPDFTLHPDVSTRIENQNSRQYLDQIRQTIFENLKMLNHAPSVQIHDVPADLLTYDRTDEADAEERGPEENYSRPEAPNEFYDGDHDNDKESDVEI
Sequence (Q9Y618 395-489 partner limits assumed, species assumed): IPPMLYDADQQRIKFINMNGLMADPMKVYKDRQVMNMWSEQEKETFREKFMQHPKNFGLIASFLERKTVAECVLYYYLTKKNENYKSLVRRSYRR
Assay Details: HDAC-3 inhibitory activity assay (fluorophore/quencher peptide substrate)
Type: biochemical
Experimental Conditions: enzyme/compound pre-incubated 2 hours at room temperature; reaction about 45 minutes
Measure Name: IC50 (µM)

[[record]]
compound = "Nc1ccc(-c2cccs2)cc1NC(=O)c1ccc(NC(=O)C2(NC(=O)OCc3ccccc3)CC2)c(F)c1 [Example 8]"
target_under_test = "HDAC-3 (Homo sapiens)"
value_prefix = ">"
result_number = 10

[[record]]
compound = "CN(C(=O)C1(NC(=O)OCc2ccccc2)CC1)c1ccc(C(=O)Nc2cc(-c3ccc(F)cc3)ccc2N)cc1 [Example 9]"
target_under_test = "HDAC-3 (Homo sapiens)"
value_prefix = "="
result_number = 7.51

[[record]]
compound = "CC(C)(C)NC(=O)NC1(C(=O)Nc2ccc(C(=O)Nc3cc(-c4ccc(F)cc4)ccc3N)cc2)CC1 [Example 11]"
target_under_test = "HDAC-3 (Homo sapiens)"
value_prefix = ">"
result_number = 10

[[record]]
compound = "Nc1ccccc1NC(=O)c1ccc(NC(=O)C2(NC(=O)OCc3ccccc3)CC2)cc1 [Example 4]"
target_under_test = "HDAC-3 (Homo sapiens)"
value_prefix = "="
result_number = 0.171

[[record]]
compound = "Nc1ccc(-c2ccc(Cl)s2)cc1NC(=O)c1ccc(NC(=O)C2(NC(=O)OCc3ccccc3)CC2)cc1 [Example 7]"
target_under_test = "HDAC-3 (Homo sapiens)"
value_prefix = ">"
result_number = 10

[[record]]
compound = "CC(C)(C)OC(=O)NC1(C(=O)Nc2ccc(C(=O)Nc3ccccc3N)cc2)CC1 [Example 2]"
target_under_test = "HDAC-3 (Homo sapiens)"
value_prefix = "="
result_number = 0.378

[[record]]
compound = "CC(C)(C)OC(=O)NC1(C(=O)Nc2ccc(C(=O)Nc3ccccc3N)cc2)CCCC1 [Example 3]"
target_under_test = "HDAC-3 (Homo sapiens)"
value_prefix = "="
result_number = 0.482

[[record]]
compound = "Nc1ccc(-c2ccc(F)cc2)cc1NC(=O)c1ccc(NC(=O)C2(NC(=O)OCc3ccccc3)CC2)cc1 [Example 6]"
target_under_test = "HDAC-3 (Homo sapiens)"
value_prefix = ">"
result_number = 10

[[record]]
compound = "CC(C)(C)OC(=O)NC1(C(=O)Nc2ccc(C(=O)Nc3ccccc3N)cc2)CCCCC1 [Example 1]"
target_under_test = "HDAC-3 (Homo sapiens)"
value_prefix = "="
result_number = 0.378

[[record]]
compound = "Nc1ccc(-c2ccc(F)cc2)cc1NC(=O)c1ccc(NC(=O)C2(N)CC2)cc1 [Example 10]"
target_under_test = "HDAC-3 (Homo sapiens)"
value_prefix = ">"
result_number = 10

[[record]]
compound = "Nc1ccc(-c2cccs2)cc1NC(=O)c1ccc(NC(=O)C2(NC(=O)OCc3ccccc3)CC2)cc1 [Example 5]"
target_under_test = "HDAC-3 (Homo sapiens)"
value_prefix = ">"
result_number = 10

